Values from ChEMBL document CHEMBL1201862

Answer each item with its documented GI50.
system: SK-MEL-2; experiment: NCI tumour cell line growth inhibition, 48 h
The source made the active and inactive calls. Rule as the data show it: active = GI50 up to about 1.1 µM and inactive = higher.

I am curious: what GI50 value has been reported for "O=C(O)CC[C@H](NC(=O)c1ccc(-n2nc3ccc(=O)cc-3[nH]c2=O)cc1)C(=O)O" ?
> 100 µM (inactive)

Field request: GI50 | item: "CC1(C)OC[C@@]2([C@@H]3CC[C@@H](C3)C2(C)C)N1O"
> 100 µM (inactive)

GI50 for "CC(=O)Oc1ccc2c(c1)c1c(=O)oc(C)nc1n2Cc1ccccc1" ?
19.2 µM (inactive)

Look at this compound and give its reported GI50. OC12C3C4CC5C(C4[C@@H]1Br)C2[C@@](O)(c1c(F)c(F)c(F)c(F)c1F)C53 (stereo partly specified)
24.5 µM (inactive)

GI50 lookup needed for "O=C1C=C(Br)C(=O)C(Br)=C1" , thanks.
> 100 µM (inactive)

I have this compound here, CC(=O)OCC1=CC2OC(=O)C3=COC(OC4OC(CO)C(O)C(O)C4O)C1C32 (stereo unspecified) , and I need its recorded GI50.
> 100 µM (inactive)

Which measured GI50 value corresponds to COC(=O)/C(=C/CC(N=C(c1ccccc1)c1ccccc1)C(=O)OC)N=C(c1ccccc1)c1ccccc1 (stereo unspecified) ?
> 100 µM (inactive)

Please report the recorded GI50 for "CCOC(=O)c1nc2ccccc2nc1Oc1ccc(F)cc1" .
> 100 µM (inactive)

# get_value(readout='GI50', item= OC12CC/C(=N/OCc3ccccc3)CC1c1ccccc12 (stereo unspecified) )
> 100 µM (inactive)

Please give the measured GI50 for this compound: "CCCCc1ccc(Nc2nc(Cl)c3ncn(COCCOC(C)=O)c3n2)cc1"
14.8 µM (inactive)

For CC1(C)C(=O)OC(n2cc(F)c(=O)[nH]c2=O)C1=O (stereo unspecified) , what is its reported GI50?
> 100 µM (inactive)

Which measured GI50 value corresponds to O=C1CC(c2cccc(Cl)c2)Oc2ccccc21 (stereo unspecified) ?
19.9 µM (inactive)

For the compound shown here, "Cc1ccc2c(O)cc(-c3ccc(F)cc3)nc2n1" , give the reported GI50.
45.7 µM (inactive)

Which value of GI50 has been reported for C=CC1[C@H]2COC(C)(C)O[C@@H]2CC(=O)C1(C)C (stereo partly specified) in the records?
> 100 µM (inactive)

I have this compound here, CN1c2c(O)nc(N)nc2NCC1CCNc1ccc(C(=O)NC(CCC(=O)O)C(=O)O)cc1 (stereo unspecified) , and I need its recorded GI50.
1470 µM (inactive)

Returns the measured GI50 for the input compound. Input: "CN(C)CCCNC(=O)c1c(O)c2ccccc2[nH]c1=O"
> 100 µM (inactive)

State the recorded GI50 for this entry: "CN1CCN(C(=O)CCNC(=O)Cc2ccc(C(=O)c3ccccc3)cc2)CC1"
> 100 µM (inactive)

I'd like to know its GI50. The compound in question is "Nc1nc(N)c(N=Nc2ccc([As](=O)(O)O)c(O)c2)c(N)n1"
> 21.1 µM (inactive)

Report GI50 for "CCCCCCCCCCCCNC1(C)CNCCCNCCNCCCNC1" please.
1.9 µM (inactive)

GI50 lookup needed for "Oc1ccccc1/C=N/c1ccc(Oc2ccc(Cl)cc2)c(Cl)c1" , thanks.
13.6 µM (inactive)

Find the recorded GI50 belonging to CC#CC1C(OC(=O)c2ccccc2)CCCC1(CI)N=[N+]=[N-] (stereo unspecified) and report it.
75 µM (inactive)

Please give the measured GI50 for this compound: COc1cc2c(cc1OC)C1c3ccccc3CCCN1CC2 (stereo unspecified)
> 100 µM (inactive)

Quick check: GI50 of "CC(=O)OCC(=O)OC[C@H](OCc1ccccc1)[C@@H]1[C@H](OC(C)=O)C(=O)N1Cc1ccccc1" ?
> 100 µM (inactive)

Could you share which GI50 value was measured for "C=C1[C@H]2O[C@H]2[C@@H](OC(C)=O)[C@@]2(C)[C@@H](OC(C)=O)C[C@@H](OC(=O)CCC)[C@@](C)(O)[C@@H]2[C@@H](OC(C)=O)[C@]2(O)[C@@H](C)C(=O)O[C@H]2[C@H]1Cl" ?
> 100 µM (inactive)

Given O=[N+]([O-])C[C@@]12O[C@]3(O)C4C5CC(C6C5C3C61)C42 (stereo partly specified) , state its recorded GI50.
> 100 µM (inactive)

I have this compound here, "COc1ccc(C(=O)c2nc3ccccc3nc2N2CCN(c3ccccc3)CC2)cc1OC" , and I need its recorded GI50.
> 100 µM (inactive)
